# Study Target: T1, human plasma Kallikrein (Calbiochem, San Diego, Calif., # 420302) (human, UniProt P03952 20-638)
# T1 construct: mature; Bought enzyme coupled to agarose beads with Reactigel (6x); also called pKA; human Kallikrein
# T1 sequence (P03952 20-638 limits assumed): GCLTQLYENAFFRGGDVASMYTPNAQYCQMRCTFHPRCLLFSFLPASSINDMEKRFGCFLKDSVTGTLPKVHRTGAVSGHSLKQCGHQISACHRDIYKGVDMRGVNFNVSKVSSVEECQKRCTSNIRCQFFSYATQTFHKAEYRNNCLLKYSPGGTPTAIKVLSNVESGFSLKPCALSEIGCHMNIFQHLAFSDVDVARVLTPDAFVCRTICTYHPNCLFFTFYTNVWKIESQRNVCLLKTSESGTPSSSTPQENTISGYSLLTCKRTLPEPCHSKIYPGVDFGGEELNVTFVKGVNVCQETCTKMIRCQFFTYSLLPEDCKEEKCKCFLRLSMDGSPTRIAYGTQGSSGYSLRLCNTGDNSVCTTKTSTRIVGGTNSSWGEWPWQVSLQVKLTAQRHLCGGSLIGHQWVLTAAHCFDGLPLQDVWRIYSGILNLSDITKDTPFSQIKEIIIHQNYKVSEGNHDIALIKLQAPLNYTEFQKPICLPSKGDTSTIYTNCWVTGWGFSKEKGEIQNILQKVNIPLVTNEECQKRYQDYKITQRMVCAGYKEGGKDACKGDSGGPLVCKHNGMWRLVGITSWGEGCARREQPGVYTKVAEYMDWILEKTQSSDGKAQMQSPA
# Test: display-phage binding to kallikrein beads; pfu eluted / input (10^10 pfu)
Ends that are not written are not given here.
Measured Quantity: Fraction Bound

The following binders have reported results that may help.
LACI-K1 (first Kunitz domain of LACI, residues 50-107 of SEQ ID NO:25) (other, also called parental molecule) MHSFCAFKADDGPCKAIMKRFFFNIFTRQCEEFIYGGCEGNQNRFESLEECKKMCTRD | 4.2e-06 fraction of input pfu
KKII/3#5 (designed binder, LACI-K1 Kunitz domain variant) MHSFCAFKADDGHCKASLPRFFFNIFTRQCEEFIYGGCGGNQNRFESLEECKKMCTRD | 0.0039 fraction of input pfu
KKI/3 (a) (designed binder, not fully specified; cysteine pairing not given here, LACI-K1 variant from the first phase of screening; also called KKII/3 (a); clone a) MHSFCAFKADDGRCKGAHLRFFFNIFTRQCEEFIYGGCEGNQNRFESLEECKKMCTRD | 3.2e-05 fraction of input pfu

Return reported Fraction Bound; argument: KKII/3#6 (designed binder, LACI-K1 Kunitz domain variant) MHSFCAFKADDGHCKANHQRFFFNIFTRQCEEFSYGGCGGNQNRFESLEECKKMCTRD 0.0087 fraction of input pfu

Likewise for KKI/3 (b) (designed binder, not fully specified; cysteine pairing not given here, LACI-K1 variant from the first phase of screening; also called KKII/3 (b); clone b) MHSFCAFKADDGPCKAIHLRFFFNIFTRQCEEFIYGGCEGNQNRFESLEECKKMCTRD ? 0.0022 fraction of input pfu
